# TARGET UNDER TEST: MAPKAPK5 (human) (UniProt Q8IW41)
# Sequence (Q8IW41 whole entry, looked up): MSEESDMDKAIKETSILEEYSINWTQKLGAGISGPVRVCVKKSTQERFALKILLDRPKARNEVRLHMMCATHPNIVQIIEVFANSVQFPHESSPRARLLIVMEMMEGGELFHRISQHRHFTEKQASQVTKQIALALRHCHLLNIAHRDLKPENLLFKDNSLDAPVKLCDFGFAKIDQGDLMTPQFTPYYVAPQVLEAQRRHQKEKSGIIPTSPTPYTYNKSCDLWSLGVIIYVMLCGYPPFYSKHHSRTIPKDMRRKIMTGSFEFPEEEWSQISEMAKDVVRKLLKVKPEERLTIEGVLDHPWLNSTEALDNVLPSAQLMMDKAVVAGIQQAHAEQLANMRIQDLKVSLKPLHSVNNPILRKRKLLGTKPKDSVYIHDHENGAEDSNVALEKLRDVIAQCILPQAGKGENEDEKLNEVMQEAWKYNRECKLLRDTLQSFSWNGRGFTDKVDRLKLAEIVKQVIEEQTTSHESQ
# ASSAY CONTEXT: compound 10.0 µM
Listing: per cent of control of selected compounds

# SMILES STR, TARGET UNDER TEST, per cent of control (%)
records = [
    ("COC(=O)Nc1ccc(-c2nc(N3CCOCC3)c3cnn(C4CCN(C(=O)OC)CC4)c3n2)cc1", "MAPKAPK5 (human) (UniProt Q8IW41)", 74),
    ("CC(C)n1nc(-c2cc3cc(O)ccc3[nH]2)c2c(N)ncnc21", "MAPKAPK5 (human) (UniProt Q8IW41)", 92),
    ("COc1ccc(-c2ccc3c(N4CCOCC4)nc(N4C[C@@H](C)O[C@@H](C)C4)nc3n2)cc1CO", "MAPKAPK5 (human) (UniProt Q8IW41)", 87),
    ("CCC(=O)N1CCN(c2ccc(-n3c(=O)ccc4cnc5ccc(-c6cnc7ccccc7c6)cc5c43)cc2C(F)(F)F)CC1", "MAPKAPK5 (human) (UniProt Q8IW41)", 49),
]

====

kinase still bound, per cent of control overview
# TARGET UNDER TEST: MAPK12 (human) (UniProt P53778)
# Sequence (P53778 whole entry, looked up): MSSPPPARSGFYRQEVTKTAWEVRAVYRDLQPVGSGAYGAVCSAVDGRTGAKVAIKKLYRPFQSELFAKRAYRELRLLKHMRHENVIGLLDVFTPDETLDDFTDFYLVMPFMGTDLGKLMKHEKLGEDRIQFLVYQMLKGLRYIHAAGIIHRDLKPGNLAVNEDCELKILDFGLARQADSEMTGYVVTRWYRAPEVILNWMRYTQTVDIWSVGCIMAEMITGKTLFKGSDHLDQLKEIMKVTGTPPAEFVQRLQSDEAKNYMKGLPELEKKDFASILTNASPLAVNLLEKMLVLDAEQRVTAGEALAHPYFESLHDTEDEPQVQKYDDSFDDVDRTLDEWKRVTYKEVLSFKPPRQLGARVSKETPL
# RUN DESCRIPTION: KINOMEscan competition binding
# ASSAY CONTEXT: compound 10.0 µM
TEST READOUT: kinase still bound, per cent of control (%)

# SMILES STR, TARGET UNDER TEST, MEASURED RESULT
records = [
    ("COc1ccc(-c2ccc3c(N4CCOCC4)nc(N4C[C@@H](C)O[C@@H](C)C4)nc3n2)cc1CO", "MAPK12 (human) (UniProt P53778)", 100),
    ("CCC(=O)N1CCN(c2ccc(-n3c(=O)ccc4cnc5ccc(-c6cnc7ccccc7c6)cc5c43)cc2C(F)(F)F)CC1", "MAPK12 (human) (UniProt P53778)", 71),
    ("CC(C)n1nc(-c2cc3cc(O)ccc3[nH]2)c2c(N)ncnc21", "MAPK12 (human) (UniProt P53778)", 59),
    ("COC(=O)Nc1ccc(-c2nc(N3CCOCC3)c3cnn(C4CCN(C(=O)OC)CC4)c3n2)cc1", "MAPK12 (human) (UniProt P53778)", 0),
]

====

# TARGET UNDER TEST: TYK2 JH2 pseudokinase (human)
# RUN DESCRIPTION: KINOMEscan competition binding
# ASSAY CONTEXT: compound 10.0 µM
Catalogue of kinase still bound, per cent of control readings, one per entry.

# SMILES STR, kinase still bound, per cent of control / %
records = [
    ("COC(=O)Nc1ccc(-c2nc(N3CCOCC3)c3cnn(C4CCN(C(=O)OC)CC4)c3n2)cc1", 78),
    ("CC(C)n1nc(-c2cc3cc(O)ccc3[nH]2)c2c(N)ncnc21", 2.6),
    ("COc1ccc(-c2ccc3c(N4CCOCC4)nc(N4C[C@@H](C)O[C@@H](C)C4)nc3n2)cc1CO", 86),
    ("CCC(=O)N1CCN(c2ccc(-n3c(=O)ccc4cnc5ccc(-c6cnc7ccccc7c6)cc5c43)cc2C(F)(F)F)CC1", 55),
]

====

# TARGET UNDER TEST: STK4 (human) (UniProt Q13043)
# Sequence (Q13043 whole entry, looked up): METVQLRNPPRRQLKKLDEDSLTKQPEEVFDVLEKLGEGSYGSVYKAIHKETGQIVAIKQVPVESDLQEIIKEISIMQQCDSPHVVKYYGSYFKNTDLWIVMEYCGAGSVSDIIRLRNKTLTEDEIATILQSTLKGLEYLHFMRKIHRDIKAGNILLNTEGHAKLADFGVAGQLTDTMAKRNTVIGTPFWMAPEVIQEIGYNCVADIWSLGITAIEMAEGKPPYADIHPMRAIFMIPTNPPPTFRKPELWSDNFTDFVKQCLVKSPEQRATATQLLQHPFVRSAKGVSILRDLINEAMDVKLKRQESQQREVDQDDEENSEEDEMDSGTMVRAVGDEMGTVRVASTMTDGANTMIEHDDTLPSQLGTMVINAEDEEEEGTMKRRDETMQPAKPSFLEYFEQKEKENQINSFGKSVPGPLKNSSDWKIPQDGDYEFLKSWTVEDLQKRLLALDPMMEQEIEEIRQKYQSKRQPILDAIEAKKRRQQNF
# RUN DESCRIPTION: KINOMEscan competition binding
# ASSAY CONTEXT: compound 10.0 µM
Reported values of kinase still bound, per cent of control for individual entries

# SMILES STR, SCALE UNIT, kinase still bound, per cent of control
rows = [
    ("COc1ccc(-c2ccc3c(N4CCOCC4)nc(N4C[C@@H](C)O[C@@H](C)C4)nc3n2)cc1CO", "%", 100),
    ("CC(C)n1nc(-c2cc3cc(O)ccc3[nH]2)c2c(N)ncnc21", "%", 84),
    ("CCC(=O)N1CCN(c2ccc(-n3c(=O)ccc4cnc5ccc(-c6cnc7ccccc7c6)cc5c43)cc2C(F)(F)F)CC1", "%", 7.6),
    ("COC(=O)Nc1ccc(-c2nc(N3CCOCC3)c3cnn(C4CCN(C(=O)OC)CC4)c3n2)cc1", "%", 100),
]
